tested on: 653999-131-R-J2-PDC complex spheroids, growth inhibition; experiment: Anticancer human tumor 653999-131-R-J2-PDC patient-derived lung adenocarcinoma cell line growth inhibition [RAS]; conditions: second compound 0.000949 µM; first compound 0.00949 µM; active compounds read low;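 also: spheroids exposed to the agents for seven days before the readout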
ASSAY ENDPOINT: viability, T/C (%)
Give a bare numeral; the unit % is implied.

So for CCc1c2c(nc3ccc(O)cc13)-c1cc3c(c(=O)n1C2)COC(=O)[C@]3(O)CC + CCn1c(-c2cccnc2C(C)OC)c2c3cc(ccc31)N1CCOC(CC(NC(=O)C(C(C)C)N(C)C(=O)C3(F)CCN(C(=O)C#CC(C)(C)N(C)C)CC3)C(=O)N3CCCC(N3)C(=O)OCC(C)(C)C2)C1 , the logged viability, T/C turned out to be 52

So for CC1(C)CCC(Nc2ncc(C(F)(F)F)c(-c3c[nH]c4c(P(C)(C)=O)c(C#N)ccc34)n2)CN1 (centres undefined) + CCn1c(-c2cccnc2C(C)OC)c2c3cc(ccc31)N1CCOC(CC(NC(=O)C(C(C)C)N(C)C(=O)C3(F)CCN(C(=O)C#CC(C)(C)N(C)C)CC3)C(=O)N3CCCC(N3)C(=O)OCC(C)(C)C2)C1 , the logged viability, T/C turned out to be 81.1

So for CC1(C)CCC(Nc2ncc(C(F)(F)F)c(-c3c[nH]c4c(P(C)(C)=O)c(C#N)ccc34)n2)CN1 (centres undefined) + CCn1c(-c2cc(N3CCN(C)CC3)cnc2C(C)OC)c2c3cc(ccc31)-c1csc(n1)CC(NC(=O)C1CC1C)C(=O)N1CCCC(N1)C(=O)OCC(C)(C)C2 , the logged viability, T/C turned out to be 56.4

So for CCc1c2c(nc3ccc(O)cc13)-c1cc3c(c(=O)n1C2)COC(=O)[C@]3(O)CC + CCn1c(-c2cc(N3CCN(C)CC3)cnc2C(C)OC)c2c3cc(ccc31)-c1csc(n1)CC(NC(=O)C1CC1C)C(=O)N1CCCC(N1)C(=O)OCC(C)(C)C2 , the logged viability, T/C turned out to be 42.2
